# systemUnderTest: C-X-C chemokine receptor type 4 (Homo sapiens, UniProt P61073)
# Sequence (P61073 whole entry): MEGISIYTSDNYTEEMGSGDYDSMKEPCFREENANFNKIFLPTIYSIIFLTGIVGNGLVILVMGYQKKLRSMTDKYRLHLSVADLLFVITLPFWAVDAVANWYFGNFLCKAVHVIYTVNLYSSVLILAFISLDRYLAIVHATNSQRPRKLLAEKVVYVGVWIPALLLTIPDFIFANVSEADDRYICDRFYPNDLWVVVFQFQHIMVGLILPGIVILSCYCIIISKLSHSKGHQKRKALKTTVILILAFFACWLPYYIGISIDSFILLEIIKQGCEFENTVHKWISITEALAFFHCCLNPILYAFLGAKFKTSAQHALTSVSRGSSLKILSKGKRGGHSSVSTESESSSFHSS
# measurementProtocol: Displacement of [125I]CXCL12 from human CXCR4 expressed in HEK293 cell membranes after 1.5 hrs by Topcount method
pIC50: −log10 of the molar value.
Threshold rule: pIC50 greater than or equal to 7 is Fulfilled; below that, Not fulfilled.

> print(dat)
                                givensmiles  assignedcategory
1  c1cc(NC2CCNCC2)nc(NCc2cn(CCCNCCCNC3CCCCC3)nn2)n1         Fulfilled
2  Clc1cc(NC2CCNCC2)nc(NCc2cn(CCCNCCCNC3CCCCC3)nn2)n1     Not fulfilled
3  O=C(O)CNCCC(=O)N1CCC(Nc2ccnc(NCc3cn(CCCNCCCNC4CCCCC4)nn3)n2)CC1     Not fulfilled
4  Cc1cc(NC2CCN(CCC(N)=O)CC2)nc(NCc2cn(CCCNCCCNC3CCCCC3)nn2)n1         Fulfilled
5  Cc1cc(NC2CCN(C(=O)CCNCC(=O)O)CC2)nc(NCc2cn(CCCNCCCNC3CCCCC3)nn2)n1         Fulfilled
6  Cc1cc(NC2CCNCC2)nc(NCc2cn(CCCNCCCNC3CCCCC3)nn2)n1         Fulfilled

====

# measurementProtocol: Acute toxicity in sc dosed C57BL/6 mouse assessed as maximum tolerated dose by measuring mortality
# Assay type: organism-based
# testContext: in vivo
Measured MTD, listed per entry.
measuredMetric: MTD (mg/kg)

> print(dat)
                                givensmiles  measuredmetric  result
1  Cc1cc(NC2CCN(C(=O)CNCCC(=O)O)CC2)nc(NCc2cn(CCCNCCCNC3CCCCC3)nn2)n1             MTD     100
2  c1cc(NC2CCNCC2)nc(NCc2cn(CCCNCCCNC3CCCCC3)nn2)n1             MTD      10
3  Cc1cc(NC2CCN(C(=O)CCCNCC(=O)O)CC2)nc(NCc2cn(CCCNCCCNC3CCCCC3)nn2)n1             MTD      75
4  CC(C)c1cc(NC2CCNCC2)nc(NCc2cn(CCCNCCCNC3CCCCC3)nn2)n1             MTD      10
5  Cc1cc(NC2CCN(CCC#N)CC2)nc(NCc2cn(CCCNCCCNC3CCCCC3)nn2)n1             MTD      20
6  Cc1cc(NC2CCN(C(=O)CC[C@H](N)C(=O)O)CC2)nc(NCc2cn(CCCNCCCNC3CCCCC3)nn2)n1             MTD      50
7  FC(F)(F)c1cc(NC2CCNCC2)nc(NCc2cn(CCCNCCCNC3CCCCC3)nn2)n1             MTD      10
8  Cc1cc(NC2CCN(CCC(N)=O)CC2)nc(NCc2cn(CCCNCCCNC3CCCCC3)nn2)n1             MTD      20

====

# systemUnderTest: Cytochrome P450 2D6 (Homo sapiens, UniProt P10635)
# Sequence (P10635 whole entry): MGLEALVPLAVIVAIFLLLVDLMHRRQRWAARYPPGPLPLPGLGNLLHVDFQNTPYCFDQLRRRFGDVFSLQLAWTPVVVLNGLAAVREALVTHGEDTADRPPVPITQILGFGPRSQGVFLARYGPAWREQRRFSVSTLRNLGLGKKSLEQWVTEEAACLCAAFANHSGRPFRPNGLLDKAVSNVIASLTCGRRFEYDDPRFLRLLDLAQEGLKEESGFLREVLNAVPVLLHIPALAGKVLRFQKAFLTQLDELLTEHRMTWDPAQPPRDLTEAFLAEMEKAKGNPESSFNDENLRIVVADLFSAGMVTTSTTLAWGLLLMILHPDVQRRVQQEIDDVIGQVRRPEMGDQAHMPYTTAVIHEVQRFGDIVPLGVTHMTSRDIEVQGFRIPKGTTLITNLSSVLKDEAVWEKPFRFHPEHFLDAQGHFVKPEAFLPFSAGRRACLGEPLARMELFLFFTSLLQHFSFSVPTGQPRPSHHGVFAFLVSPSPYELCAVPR
measuredMetric: IC50

> print(dat)
                                givensmiles    result
1  Cc1cc(NC2CCN(C(=O)CCNCC(=O)O)CC2)nc(NCc2cn(CCCNCCCNC3CCCCC3)nn2)n1  > 100 µM

====

Readings of Cmax for the listed molecules
# measurementProtocol: Cmax in C57BL/6 mouse at 6 mg/kg, sc measured up to 4 hrs post dose by LC-MS/MS analysis
# Format: ADME, organism-based
# Parameters: dose 6 mg/kg, route subcutaneous
# testContext: in vivo
measuredMetric: Cmax (ng/mL)

> print(dat)
                                givensmiles  measuredmetric  result
1  Cc1cc(NC2CCN(C(=O)CCNCC(=O)O)CC2)nc(NCc2cn(CCCNCCCNC3CCCCC3)nn2)n1            Cmax   16400
2  c1cc(CN2CCCNCCNCCCNCC2)ccc1CN1CCCNCCNCCCNCC1            Cmax    6200

====

# measurementProtocol: Acute toxicity in sc dosed C57BL/6 mouse assessed as maximum tolerated dose by measuring mortality
# Assay type: organism-based
# testContext: in vivo
measuredMetric: MTD (mg/kg)

> print(dat)
                                givensmiles  unitofmeasure  result
1  Cc1cc(NC2CCN(CCC(=O)O)CC2)nc(NCc2cn(CCCNCCCNC3CCCCC3)nn2)n1          mg/kg      75
2  COc1cc(NC2CCNCC2)nc(NCc2cn(CCCNCCCNC3CCCCC3)nn2)n1          mg/kg      10
3  Clc1cc(NC2CCNCC2)nc(NCc2cn(CCCNCCCNC3CCCCC3)nn2)n1          mg/kg      10
4  Cc1cc(NC2CCNCC2)nc(NCc2cn(CCCNCCCNC3CCCCC3)nn2)n1          mg/kg      10
5  Cc1cc(NC2CCN(C(=O)CCNCC(=O)O)CC2)nc(NCc2cn(CCCNCCCNC3CCCCC3)nn2)n1          mg/kg      75

====

# measurementProtocol: Cytotoxicity against human Detroit 551 cells
# Assay type: cell-based
measuredMetric: CC50

> print(dat)
                                givensmiles    result
1  Cc1cc(NC2CCN(C(=O)CCNCC(=O)O)CC2)nc(NCc2cn(CCCNCCCNC3CCCCC3)nn2)n1  > 100 µM

====

# measurementProtocol: Half life in C57BL/6 mouse at 6 mg/kg, sc measured up to 4 hrs post dose by LC-MS/MS analysis
# Format: ADME, organism-based
# testContext: in vivo
measuredMetric: half-life (min)

> print(dat)
                                givensmiles  measuredmetric  result
1  Cc1cc(NC2CCN(C(=O)CCNCC(=O)O)CC2)nc(NCc2cn(CCCNCCCNC3CCCCC3)nn2)n1       half-life      30
2  c1cc(CN2CCCNCCNCCCNCC2)ccc1CN1CCCNCCNCCCNCC1       half-life      84

====

# measurementProtocol: AUC (0 to 4 hrs) in C57BL/6 mouse at 6 mg/kg, sc measured up to 4 hrs post dose by LC-MS/MS analysis
# Assay type: ADME, organism-based
# Design: dose 6 mg/kg, time < 4 hr, route subcutaneous
# testContext: in vivo
The following molecules are shown together with reported AUC(0-t) at 4 h values.
measuredMetric: AUC(0-t) at 4 h (ng·h/mL)

> print(dat)
                                givensmiles  unitofmeasure  result
1  c1cc(CN2CCCNCCNCCCNCC2)ccc1CN1CCCNCCNCCCNCC1        ng·h/mL    7150
2  Cc1cc(NC2CCN(C(=O)CCNCC(=O)O)CC2)nc(NCc2cn(CCCNCCCNC3CCCCC3)nn2)n1        ng·h/mL   13500

====

# systemUnderTest: Cytochrome P450 2C19 (Homo sapiens, UniProt P33261)
# Sequence (P33261 whole entry): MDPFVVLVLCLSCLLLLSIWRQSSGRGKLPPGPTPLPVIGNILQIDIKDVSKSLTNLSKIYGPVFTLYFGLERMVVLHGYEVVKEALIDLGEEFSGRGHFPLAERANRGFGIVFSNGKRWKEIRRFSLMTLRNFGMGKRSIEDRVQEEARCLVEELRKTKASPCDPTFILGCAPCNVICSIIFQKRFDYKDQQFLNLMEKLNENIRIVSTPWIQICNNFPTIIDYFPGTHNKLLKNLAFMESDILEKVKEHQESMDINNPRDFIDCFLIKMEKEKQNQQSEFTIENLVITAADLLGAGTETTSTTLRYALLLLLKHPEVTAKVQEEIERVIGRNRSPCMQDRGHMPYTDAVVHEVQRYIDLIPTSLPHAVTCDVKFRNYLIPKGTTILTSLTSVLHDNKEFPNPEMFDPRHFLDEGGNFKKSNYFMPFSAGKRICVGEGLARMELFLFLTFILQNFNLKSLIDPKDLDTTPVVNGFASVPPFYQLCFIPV
pIC50: −log10 of the molar value.
measuredMetric: pIC50

> print(dat)
                                givensmiles  measuredmetric  result
1  Cc1cc(NC2CCN(C(=O)CCNCC(=O)O)CC2)nc(NCc2cn(CCCNCCCNC3CCCCC3)nn2)n1           pIC50  < 4.00

====

# systemUnderTest: UniProt P05177
# Sequence (P05177 whole entry): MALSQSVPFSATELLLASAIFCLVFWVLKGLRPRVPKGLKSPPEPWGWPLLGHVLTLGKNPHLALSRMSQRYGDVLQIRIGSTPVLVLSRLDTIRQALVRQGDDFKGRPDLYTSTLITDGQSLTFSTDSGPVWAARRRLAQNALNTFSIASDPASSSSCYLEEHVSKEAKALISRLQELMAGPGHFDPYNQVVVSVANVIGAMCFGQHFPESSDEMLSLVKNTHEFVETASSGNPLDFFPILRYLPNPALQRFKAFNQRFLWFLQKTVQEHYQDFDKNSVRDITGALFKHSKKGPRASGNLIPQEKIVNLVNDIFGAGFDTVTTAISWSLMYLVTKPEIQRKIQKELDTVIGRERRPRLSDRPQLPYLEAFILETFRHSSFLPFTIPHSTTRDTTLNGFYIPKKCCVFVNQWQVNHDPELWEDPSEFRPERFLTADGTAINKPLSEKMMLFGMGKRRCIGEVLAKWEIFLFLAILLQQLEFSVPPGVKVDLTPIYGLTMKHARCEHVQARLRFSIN
measuredMetric: IC50

> print(dat)
                                givensmiles  measuredmetric    result
1  Cc1cc(NC2CCN(C(=O)CCNCC(=O)O)CC2)nc(NCc2cn(CCCNCCCNC3CCCCC3)nn2)n1            IC50  > 100 µM
